EXPERIMENTAL_DETAILS: gradient 5% acetonitrile 3 min, to 50% in 2 min, to 85% in 15 min, held 3 min, 100 µL/min
RUN_CONDITIONS: column: Zorbax Extend-C18 2.1 x 50 mm; eluents: water / acetonitrile, 0.1% formic acid
Field: label. Allowed values: 1 (yes) (RP-LC retention time < 800 s) or 0 (no) (RP-LC retention time >= 800 s).

COc1ccc(CCc2nc3cc(-c4c(C)noc4C)ccc3n2C[C@H](C)N2CCOCC2)cc1Cl    1 (yes)
O=C1COc2ccccc2N1Cc1nc(-c2cccc(C(F)(F)F)c2)no1    0 (no)
Cc1cc(C)cc(Nc2c(-c3cc(Br)ccc3O)nc3ncccn23)c1    0 (no)
Cc1ccc(N2CC(c3noc(-c4ccc(F)cc4)n3)CC2=O)cc1 (centres undefined)    0 (no)
COc1ccc(C(C)NC(=O)c2cnn3c(-c4ccc5c(c4)OCO5)ccnc23)cc1OC (centres undefined)    0 (no)
CC(NC(=O)C1CCCN(C(=O)c2cc3sccc3n2C)C1)c1ccc2c(c1)OCCO2 (centres undefined)    0 (no)
COc1cccc(-n2c(CN3CCN(c4ccccn4)CC3)nc3ccc([N+](=O)[O-])cc3c2=O)c1    1 (yes)

Please turn your attention to the following entry.
Prompt: # check: RP-LC retention time < 800 s for CCc1ccc(NC(=O)Nc2ccc3nnc(C)n3c2)cc1
Response: 1 (yes)
